Where do these numbers come from? They come from patent US20260258420A1.

Test system: 16 HPV-positive HNSCC and cervical squamous cancer cell lines
test_description: High-throughput drug screen (HTDS), cell death by AOC_LD, HPV-positive cell lines
Format: cell-based
reported_conditions: sensitive = AOC_LD greater than 0
Criterion: HPV positive Sensitive (number of cell lines) meeting or surpassing 8. Met: Condition met. Not met: Condition not met.

Here are 4 molecules together with their reported answers.
# chemical_string, label_value
measured = [
    ("O=C(Nc1c[nH]nc1-c1nc2ccc(CN3CCOCC3)cc2[nH]1)NC1CC1", "Condition met"),
    ("CN1CCN(c2ccc3nc(-c4c(N)c5c(F)cccc5[nH]c4=O)[nH]c3c2)CC1", "Condition not met"),
    ("COc1cc(Nc2ncc3c(n2)-c2ccc(Cl)cc2C(c2c(F)cccc2OC)=NC3)ccc1C(=O)O", "Condition met"),
    ("CCCCCCOC(=O)[C@]1(O)C[C@@H]2O[C@@]1(C)n1c3ccccc3c3c4c(c5c6ccccc6n2c5c31)C(=O)NC4", "Condition not met"),
]

*Q* Hi team, for Nc1nc(Nc2ccc(S(N)(=O)=O)cc2)nn1C(=O)c1c(F)cccc1F , is the recorded HPV positive Sensitive (number of cell lines) at or above 8?
*A* Condition met

====

System: 17 HPV-negative HNSCC and cervical squamous cancer cell lines
test_description: High-throughput drug screen (HTDS), cell death by AOC_LD, HPV-negative cell lines
Type: cell-based
reported_conditions: sensitive = AOC_LD greater than 0
measurement_type: HPV negative Sensitive (number of cell lines)
Lab note: jot the number down without any unit.

Below, each entry is followed by its recorded HPV negative Sensitive (number of cell lines) result.
# compound, readout_number
measured = [
    ("COC(=O)c1ccc2c(c1)NC(=O)/C2=C(\\Nc1ccc(N(C)C(=O)CN2CCN(C)CC2)cc1)c1ccccc1", 0),
    ("Clc1ccc(C2(c3ccc(-c4cn[nH]c4)cc3)CCNCC2)cc1", 0),
    ("CC(=O)NCC(=O)N1[C@@H]2CC[C@H]1c1ccc(Nc3ncc(C(F)(F)F)c(NC4CCC4)n3)cc12", 2),
    ("Cc1nc(N)sc1-c1ccnc(Nc2ccc(N3CCOCC3)cc2)n1", 2),
    ("COc1ccc(-c2ccc3c(N4CCOC[C@@H]4C)nc(N4CCOC[C@@H]4C)nc3n2)cc1CO", 0),
]

*Q* Can you share its HPV negative Sensitive (number of cell lines)? I mean this compound: O=C(Nc1cccc(Nc2ncc(Br)c(NCCc3cnc[nH]3)n2)c1)N1CCCC1
*A* 1

*Q* What measured HPV negative Sensitive (number of cell lines) goes with CCCCCCOC(=O)[C@]1(O)C[C@@H]2O[C@@]1(C)n1c3ccccc3c3c4c(c5c6ccccc6n2c5c31)C(=O)NC4 ?
*A* 0

*Q* Entry COc1cc([C@@H]2c3cc4c(cc3[C@@H](O[C@@H]3O[C@@H]5CO[C@@H](C)O[C@H]5[C@H](O)[C@H]3O)[C@H]3COC(=O)[C@H]23)OCO4)cc(OC)c1O [ETOPOSIDE] has what HPV negative Sensitive (number of cell lines)?
*A* 2

*Q* So what's the measured HPV negative Sensitive (number of cell lines) for this one? CCn1cc(-c2ccnc3[nH]c(-c4cccc(CN(C)C)c4)cc23)c(-c2ccc(NC(=O)N(C)C)cc2)n1
*A* 5

====

Quick reference: HPV positive Resistant (number of cell lines) of the listed items.
Test system: 16 HPV-positive HNSCC and cervical squamous cancer cell lines
test_description: High-throughput drug screen (HTDS), cell death by AOC_LD, HPV-positive cell lines
Assay type: cell-based
reported_conditions: resistant = AOC_LD 0

Below: 2 compounds and their reported HPV positive Resistant (number of cell lines).
# compound, system, result
rows = [
    ("COC(=O)c1ccc2c(c1)NC(=O)/C2=C(\\Nc1ccc(N(C)C(=O)CN2CCN(C)CC2)cc1)c1ccccc1 [NINTEDANIB]", "16 HPV-positive HNSCC and cervical squamous cancer cell lines", 11),
    ("CCn1cc(-c2ccnc3[nH]c(-c4cccc(CN(C)C)c4)cc23)c(-c2ccc(NC(=O)N(C)C)cc2)n1 [GSK1070916]", "16 HPV-positive HNSCC and cervical squamous cancer cell lines", 4),
]

*Q* HPV positive Resistant (number of cell lines) lookup needed for O=C(Nc1cccc(Cl)c1)Nc1ncc(CCNc2ncnc3ccsc23)s1 [SNS314] , thanks.
*A* 8
